- tested-system: Lipolase (Thermomyces lanuginosus)
- Construct: purchased Sigma-Aldrich
- test-method-notes: storage stability of lipase (Lipolase activity, pNitrophenol-valerate substrate) in liquid formulations at 37° C.
- Format: biochemical, Thermomyces lanuginosa
- run-conditions: base formulation III.; component (a) 2.5 wt %; Lipolase 0.4 wt %; storage at 37° C.; 1 d
Kindly state lipase activity for each of the entries shown.
Give just the number in %; leave the unit off.

(Q) Please report the recorded lipase activity for `CC(=O)OCC[N+](C)(C)C` .
(A) 98

(Q) Then O=C([O-])CC(O)(CC(=O)O)C(=O)O.[Na+] [C-(A.20), monosodium salt of citric acid] ?
(A) 92

(Q) Further, for O=C([O-])CC(O)(CC(=O)[O-])C(=O)[O-].[Na+].[Na+].[Na+] [C-(A.22), trisodium salt of citric acid] ?
(A) 92

(Q) # repeat for O=C([O-])CC(O)(CC(=O)[O-])C(=O)O.[Na+].[Na+] [C-(A.21), disodium salt of citric acid]
(A) 93

* * *

- tested-system: Lipolase (Thermomyces lanuginosus)
- Construct: purchased Sigma-Aldrich
- Sequence (O59952 23-291): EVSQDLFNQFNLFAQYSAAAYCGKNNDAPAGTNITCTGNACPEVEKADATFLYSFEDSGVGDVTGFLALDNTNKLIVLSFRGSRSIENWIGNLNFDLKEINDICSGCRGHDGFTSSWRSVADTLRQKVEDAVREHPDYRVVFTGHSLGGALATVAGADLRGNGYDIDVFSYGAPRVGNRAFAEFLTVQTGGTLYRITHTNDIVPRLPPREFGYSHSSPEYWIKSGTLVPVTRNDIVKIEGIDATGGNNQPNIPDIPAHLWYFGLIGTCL
- test-method-notes: storage stability of lipase (Lipolase activity, pNitrophenol-valerate substrate) in liquid formulations at 37° C.
- Format: biochemical, Thermomyces lanuginosa
- run-conditions: base formulation IV.; component (a) 4.0 wt %; Lipolase 0.4 wt %; storage at 37° C.; 25 d
- Description: The storage stability of Lipase and Protease in water was assessed at 37° C. Base test formulations were manufactured by making base formulations I to VI by mixing the components according to Table 1. […] The amount of enzyme as provided in Table 1 refers to active protein. Either lipase or protease was added, depending on which enzyme activity was measured. […]
measurement-label: lipase activity (%)
All answers are understood in %, so give the number only.

(Q) Query: lipase activity; subject: C[N+](C)(C)CCO.[Cl-] [C-(A.15), Choline chloride]
(A) 30

(Q) Quick one: `C[N+](C)(C)CCO.C[N+](C)(C)CCO.O=C([O-])CC(O)(CC(=O)O)C(=O)[O-]`
(A) 38

(Q) Would you mind doing C[N+](C)(C)CCO.C[N+](C)(C)CCO.O=C([O-])C(O)C(O)C(=O)[O-] (stereo not shown) as well?
(A) 28

(Q) Here is the next compound: `C[N+](C)(C)CCO.C[N+](C)(C)CCO.C[N+](C)(C)CCO.O=C([O-])CC(O)(CC(=O)[O-])C(=O)[O-]`
(A) 39

* * *

- tested-system: Lipolase (Thermomyces lanuginosus, UniProt O59952)
- Construct: purchased Sigma-Aldrich
- test-method-notes: storage stability of lipase (Lipolase activity, pNitrophenol-valerate substrate) in liquid formulations at 37° C.
- Type: biochemical, Thermomyces lanuginosa
- run-conditions: base formulation IV.; component (a) 4.0 wt %; Lipolase 0.4 wt %; storage at 37° C.; 6 d
measurement-label: lipase activity (%)
Please give a number only; it is taken to be in %.

(Q) Record C[N+](C)(C)CCO.[Cl-] [C-(A.15), Choline chloride] : what is its lipase activity with Lipolase (Thermomyces lanuginosus, UniProt O59952)?
(A) 72

(Q) Item: `C[N+](C)(C)CCO.C[N+](C)(C)CCO.C[N+](C)(C)CCO.O=C([O-])CC(O)(CC(=O)[O-])C(=O)[O-]`
(A) 72

(Q) Quick one: C[N+](C)(C)CCO.C[N+](C)(C)CCO.O=C([O-])C(O)C(O)C(=O)[O-] (stereo not shown)
(A) 67

(Q) Now the same for `C[N+](C)(C)CCO.C[N+](C)(C)CCO.O=C([O-])CC(O)(CC(=O)O)C(=O)[O-]`
(A) 74
